ASSAY_PROCEDURE: Cytotoxicity assay (CellTiter-Glo), FLS
Format: cell-based, human
CONDITION_DETAILS: both sexes, human; concentrations up to 50 µM; read-out: Cytotoxic effect FLS IC50
OBSERVATION_TYPE: IC50 (µM)
The reply should contain only the number, in µM.

**Query** Recorded IC50 of O=C1c2ccccc2-n2c1nc1ccccc1c2=O [TRYP, indolo[2,1-b]quinazolin-6,12-dione] , please.
**Result** 16.7

====

ASSAY_PROCEDURE: Cytotoxicity assay (CellTiter-Glo), SW982
Format: cell-based
CONDITION_DETAILS: human, SW982 cells; concentrations up to 50 µM; read-out: Cytotoxic effect SW982 IC50
OBSERVATION_TYPE: pIC50
Please keep in mind that pIC50 is minus log10 of the molar concentration; only the number is needed.

**Query** Recorded pIC50 of O=C1c2ccccc2-n2c1nc1ccccc1c2=O [TRYP, indolo[2,1-b]quinazolin-6,12-dione] , please.
**Result** 4.72

====

System: MMP-1 secretion by HUVEC
ASSAY_PROCEDURE: IL-1β-induced MMP-1 secretion by HUVEC (ELISA)
Type: cell-based
CONDITION_DETAILS: Homo sapiens, 30 min compound, then 5 ng/ml IL-1β, 24 h
Reported IC50 values are given for each entry in this list.
The reply should contain only the number, in µM.

| COMPOUND | IC50, µM |
| --- | --- |
| O=C1c2ccccc2-n2c1nc1ccccc1c2=O [TRYP, indolo[2,1-b]quinazolin-6,12-dione] | 3.4 |

# context switch: different compound, same IC50
**Query** Recorded IC50 of O=c1c2ccccc2nc2n1-c1ccccc1/C2=N/O , please.
**Result** 2.9

====

ASSAY_PROCEDURE: Cytotoxicity assay (CellTiter-Glo), THP-1
Assay type: cell-based
CONDITION_DETAILS: human, THP-1 cells; concentrations up to 50 µM; read-out: Cytotoxic effect THP-1 IC50
OBSERVATION_TYPE: pIC50
Please keep in mind that pIC50 is minus log10 of the molar concentration; only the number is needed.

**Query** Recorded pIC50 of O=C1c2ccccc2-n2c1nc1ccccc1c2=O [TRYP, indolo[2,1-b]quinazolin-6,12-dione] , please.
**Result** 4.74

Entry source: paper PMC7394103
